Origin of values: PubChem BioAssay AID1159580

Assay: chemical genetic growth profiling, strain panel (AID 1159580);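 further: tested at 20 µM; growth read once vehicle control cultures reached saturation at 30 °C; lower values mean less growth of the strain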
Conditions: S. cerevisiae deletion strains, growth OD, locus YML120C, strain ndi1
The whole screen tested about 5,500 compounds, of which about 2,000 (36%) were called active. Not shown: some 18% with an inconclusive outcome. No stated cut-off is given here; in the data, active means normalized growth mostly below about 0.91 (no sharp cut-off); inconclusive means no clear call, values can overlap the other calls; inactive means mostly above about 0.92. This is one part of the list. Where a SMILES comes first, the peptide text is derived from it.
Permitted responses: t for active, f for inactive

Examples with answers:
INSERT INTO measurements (compound, qualitative_label) VALUES
  ('CCC(N)C(O)c1ccc(O)c(O)c1 (centres undefined)', 'f'),
  ('NC(=O)NCCCC(N)C(=O)O (centres undefined)', 'f'),
  ('O=c1c(O)c(-c2ccc(O)c(O)c2)oc2c(O[C@@H]3O[C@H](CO)[C@H](O)[C@@H](O)[C@H]3O)c(O)cc(O)c12', 'f'),
  ('C[C@]12CCC3c4ccc(OS(=O)(=O)O)cc4CCC3C1CC[C@H]2O (some centres undefined)', 'f'),
  ('COc1ccc2c(c1)CCC1C2CCC2(C)C1C[C@@H](O)C2O (some centres undefined)', 'f');

Any idea what this test logged for CCN[C@@H]1C[C@H](N)[C@@H](O[C@H]2OC(CN)=CC[C@H]2N)[C@H](O)[C@H]1OC1OC[C@](C)(O)[C@H](NC)[C@H]1O (some centres undefined) ?
f

Any idea what this test logged for O=c1ccc2cc(OC3OC(CO)C(O)C(O)C3O)c(O)cc2o1 (centres undefined) ?
f

Any idea what this test logged for "COc1ccc(-c2oc3cc(O[C@H]4O[C@H](CO)[C@@H](O)[C@H](O)[C@H]4O)c(OC)c(O)c3c(=O)c2OC)cc1O" ?
f

Any idea what this test logged for "CN1C[C@H](C(=O)N[C@]2(C)O[C@@]3(O)[C@@H]4CCCN4C(=O)[C@H](Cc4ccccc4)N3C2=O)C[C@@H]2c3cccc4[nH]cc(c34)C[C@H]21" ?
f

Any idea what this test logged for C=CC1C2=CCOC(=O)C2=COC1OC1OC(CO)C(O)C(O)C1O (centres undefined) ?
f

Any idea what this test logged for CC(CC(C(N)=O)(c1ccccc1)c1ccccc1)N(C)C (centres undefined) ?
f

Any idea what this test logged for "C=C(C)[C@H]1COc2cc3oc(=O)ccc3cc2O1" ?
f

Any idea what this test logged for COC(=O)[C@H](Cc1ccccc1)NC(=O)[C@@H](N)CC(=O)O (H-Asp-Phe-OMe) ?
f

Any idea what this test logged for COC(=O)[C@@]1(C)CCC[C@]2(C)c3ccc(O)c(C(C)C)c3CCC12 (some centres undefined) ?
t

Any idea what this test logged for O=C1C=C2C(=CCOC2O)O1 (centres undefined) ?
t

Any idea what this test logged for COC(=O)[C@]1(C)CCC[C@]2(C)c3ccc(C(C)C)cc3C(=O)CC12 (some centres undefined) ?
f

Any idea what this test logged for CC(=O)Oc1ccc2c(c1C(C)C)CCC1C(C)(C)CCC[C@]21C (some centres undefined) ?
f

Any idea what this test logged for C[C@@H]1CC[C@@]2(OC1)O[C@H]1CC3C4CC[C@H]5C[C@@H](O)CC[C@]5(C)C4CC[C@]3(C)[C@H]1[C@@H]2C (some centres undefined) ?
f

Any idea what this test logged for "CC(C)[N+](C)(CCC(C(N)=O)(c1ccccc1)c1ccccc1)C(C)C" ?
f

Any idea what this test logged for CC1CC[C@@]2(OC1)O[C@H]1CC3C4CC[C@@H]5C[C@@H](O)CC[C@]5(C)C4CC[C@]3(C)[C@H]1[C@@H]2C (some centres undefined) ?
f

Any idea what this test logged for CC1CCC2(OC1)OC1CC3C4CC[C@H]5C[C@@H](O)CC[C@]5(C)C4CC(=O)[C@]3(C)C1C2C (some centres undefined) ?
f

Any idea what this test logged for CN[C@@H]1[C@@H](O)C(OC2[C@@H](N)C[C@@H](N)[C@H](O[C@H]3O[C@H](C(C)O)[C@@H](O)[C@H](O)[C@H]3N)[C@H]2O)OC[C@]1(C)O (some centres undefined) ?
f

Any idea what this test logged for "O=C1[O][Bi][O]c2ccccc21" ?
f

Any idea what this test logged for CC(C)N(CCC(C(N)=O)(c1ccccc1)c1ccccn1)C(C)C (centres undefined) ?
t
